Target: c-ABL protein (Homo sapiens)
Sequence (P00519 whole entry): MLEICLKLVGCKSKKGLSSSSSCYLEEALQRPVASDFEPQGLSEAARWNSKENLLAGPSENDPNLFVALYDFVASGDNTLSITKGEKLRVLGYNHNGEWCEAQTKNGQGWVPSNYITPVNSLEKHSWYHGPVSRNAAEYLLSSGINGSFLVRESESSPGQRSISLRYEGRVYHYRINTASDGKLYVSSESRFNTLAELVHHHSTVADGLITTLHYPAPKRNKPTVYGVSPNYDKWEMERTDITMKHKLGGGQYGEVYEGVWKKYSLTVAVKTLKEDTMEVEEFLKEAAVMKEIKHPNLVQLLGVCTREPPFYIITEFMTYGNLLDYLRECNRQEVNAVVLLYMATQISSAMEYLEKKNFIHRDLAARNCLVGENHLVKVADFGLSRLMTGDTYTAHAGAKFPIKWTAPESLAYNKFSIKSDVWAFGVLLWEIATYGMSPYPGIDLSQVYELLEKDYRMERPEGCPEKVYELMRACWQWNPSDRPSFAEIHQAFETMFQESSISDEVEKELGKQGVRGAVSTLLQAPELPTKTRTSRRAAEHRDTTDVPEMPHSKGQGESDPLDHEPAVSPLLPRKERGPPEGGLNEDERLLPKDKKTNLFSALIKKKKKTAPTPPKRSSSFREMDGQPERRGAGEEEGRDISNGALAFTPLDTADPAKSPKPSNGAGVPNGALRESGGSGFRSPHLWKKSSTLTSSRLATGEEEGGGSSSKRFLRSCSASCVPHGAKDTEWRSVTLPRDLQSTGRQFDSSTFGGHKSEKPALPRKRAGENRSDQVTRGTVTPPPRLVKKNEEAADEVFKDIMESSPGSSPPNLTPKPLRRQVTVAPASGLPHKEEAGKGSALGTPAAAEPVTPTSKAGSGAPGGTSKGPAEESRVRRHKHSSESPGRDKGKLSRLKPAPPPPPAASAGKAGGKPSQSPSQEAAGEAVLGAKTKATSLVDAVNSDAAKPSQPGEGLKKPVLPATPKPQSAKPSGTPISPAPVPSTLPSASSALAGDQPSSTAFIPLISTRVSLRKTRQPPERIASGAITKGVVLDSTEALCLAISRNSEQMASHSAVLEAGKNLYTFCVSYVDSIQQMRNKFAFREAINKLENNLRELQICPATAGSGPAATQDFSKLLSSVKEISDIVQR
Assay: Western blot degradation of c-ABL in K562 cells
Assay type: cell-based
Set-up: Western blot was used to detect the expression of BCR-ABL and c-ABL protein in K562 cells; endogenous in cells; host or cells: K562
Settings: 16 hours, 1 nM-10 μM
Provide the reported DC50 of each item.

Some solved cases for reference:
Cc1nc(Nc2ncc(C(=O)Nc3c(C)cccc3Cl)s2)cc(N2CCN(C(=O)CCCCC(=O)N[C@H](C(=O)N3C[C@H](O)C[C@H]3C(=O)NCc3ccc(-c4scnc4C)cc3)C(C)(C)C)CC2)n1	100 to 1000 nM
Cc1nc(Nc2ncc(C(=O)Nc3c(C)cccc3Cl)s2)cc(N2CCN(C(=O)CCCCCCNc3cccc4c3C(=O)N(C3CCC(=O)NC3=O)C4=O)CC2)n1 (centres unmarked)	1 to 10 nM

Working through the 6 molecules below one at a time, give DC50 for each.
1. COc1cc(Nc2c(C#N)cnc3cc(OCCCN4CCN(C(=O)CCCCCNc5cccc6c5C(=O)N(C5CCC(=O)NC5=O)C6=O)CC4)c(OC)cc23)c(Cl)cc1Cl (centres unmarked)
2. Cc1nc(Nc2ncc(C(=O)Nc3c(C)cccc3Cl)s2)cc(N2CCN(C(=O)CC(=O)Nc3cccc4c3CN(C3CCC(=O)NC3=O)C4=O)CC2)n1 (centres unmarked)
3. Cc1nc(Nc2ncc(C(=O)Nc3c(C)cccc3Cl)s2)cc(N2CCN(C(=O)CCOCCOCCOCCOCCNc3cccc4c3C(=O)N(C3CCC(=O)NC3=O)C4=O)CC2)n1 (centres unmarked)
4. COc1cc(Nc2c(C#N)cnc3cc(OCCCN4CCN(C(=O)CCOCCOCCNc5cccc6c5C(=O)N(C5CCC(=O)NC5=O)C6=O)CC4)c(OC)cc23)c(Cl)cc1Cl (centres unmarked)
5. Cc1nc(Nc2ncc(C(=O)Nc3c(C)cccc3Cl)s2)cc(N2CCN(C(=O)CNc3cccc4c3C(=O)N(C3CCC(=O)NC3=O)C4=O)CC2)n1 (centres unmarked)
6. Cc1nc(Nc2ncc(C(=O)Nc3c(C)cccc3Cl)s2)cc(N2CCN(C(=O)CCCCNc3cccc4c3C(=O)N(C3CCC(=O)NC3=O)C4=O)CC2)n1 (centres unmarked)

A:
10 to 100 nM
10 to 100 nM
10 to 100 nM
10 to 100 nM
1 to 10 nM
1 to 10 nM

Working through the 3 molecules below one at a time, give DC50 for each.
1. Cc1nc(Nc2ncc(C(=O)Nc3c(C)cccc3Cl)s2)cc(N2CCN(C(=O)CCCCCC(=O)N[C@H](C(=O)N3C[C@H](O)C[C@H]3C(=O)NCc3ccc(-c4scnc4C)cc3)C(C)(C)C)CC2)n1
2. Cc1nc(Nc2ncc(C(=O)Nc3c(C)cccc3Cl)s2)cc(N2CCN(C(=O)CCCC(=O)Nc3cccc4c3CN(C3CCC(=O)NC3=O)C4=O)CC2)n1 (centres unmarked)
3. COc1cc(Nc2c(C#N)cnc3cc(OCCCN4CCN(C(=O)CCCNc5cccc6c5C(=O)N(C5CCC(=O)NC5=O)C6=O)CC4)c(OC)cc23)c(Cl)cc1Cl (centres unmarked)

A:
["10 to 100 nM", "10 to 100 nM", "10 to 100 nM"]

###

Target: c-ABL protein (Homo sapiens)
Assay: Western blot degradation of c-ABL in K562 cells
Assay type: cell-based
Design: Western blot was used to detect the expression of BCR-ABL and c-ABL protein in K562 cells; endogenous in cells; host or cells: K562
Conditions: 16 hours, 1 nM-10 μM
Provide the reported DC50 of each item.

Some solved cases for reference:
Cc1nc(Nc2ncc(C(=O)Nc3c(C)cccc3Cl)s2)cc(N2CCN(C(=O)CCCC(=O)Nc3cccc4c3C(=O)N(C3CCC(=O)NC3=O)C4=O)CC2)n1 (stereo not shown)	0.01 to 0.1 µM
Cc1nc(Nc2ncc(C(=O)Nc3c(C)cccc3Cl)s2)cc(N2CCN(C(=O)CCOCCOCCOCCOCCC(=O)N[C@H](C(=O)N3C[C@H](O)C[C@H]3C(=O)NCc3ccc(-c4scnc4C)cc3)C(C)(C)C)CC2)n1	> 1 µM
COc1cc(Nc2c(C#N)cnc3cc(OCCCN4CCN(C(=O)CCCCNc5cccc6c5C(=O)N(C5CCC(=O)NC5=O)C6=O)CC4)c(OC)cc23)c(Cl)cc1Cl (stereo not shown)	0.01 to 0.1 µM
COc1cc(Nc2c(C#N)cnc3cc(OCCCN4CCN(C(=O)CCOCCOCCOCCNc5cccc6c5C(=O)N(C5CCC(=O)NC5=O)C6=O)CC4)c(OC)cc23)c(Cl)cc1Cl (stereo not shown)	0.01 to 0.1 µM
Cc1nc(Nc2ncc(C(=O)Nc3c(C)cccc3Cl)s2)cc(N2CCN(C(=O)CCC(=O)N[C@H](C(=O)N3C[C@H](O)C[C@H]3C(=O)NCc3ccc(-c4scnc4C)cc3)C(C)(C)C)CC2)n1	0.1 to 1 µM

Working through the 4 compounds below one at a time, give DC50 for each.
1. Cc1nc(Nc2ncc(C(=O)Nc3c(C)cccc3Cl)s2)cc(N2CCN(C(=O)CCOCCOCCNc3cccc4c3C(=O)N(C3CCC(=O)NC3=O)C4=O)CC2)n1 (stereo not shown)
2. Cc1nc(Nc2ncc(C(=O)Nc3c(C)cccc3Cl)s2)cc(N2CCN(C(=O)COc3cccc4c3C(=O)N(C3CCC(=O)NC3=O)C4=O)CC2)n1 (stereo not shown)
3. COc1cc(Nc2c(C#N)cnc3cc(OCCCN4CCN(C(=O)CCC(=O)NCCNc5cccc6c5C(=O)N(C5CCC(=O)NC5=O)C6=O)CC4)c(OC)cc23)c(Cl)cc1Cl (stereo not shown)
4. Cc1nc(Nc2ncc(C(=O)Nc3c(C)cccc3Cl)s2)cc(N2CCN(C(=O)CCCC(=O)N[C@H](C(=O)N3C[C@H](O)C[C@H]3C(=O)NCc3ccc(-c4scnc4C)cc3)C(C)(C)C)CC2)n1

A:
["0.01 to 0.1 µM", "0.001 to 0.01 µM", "0.001 to 0.01 µM", "0.1 to 1 µM"]

Working through the 4 compounds below one at a time, give DC50 for each.
1. Cc1ccc(NC(=O)c2ccc(CN3CCN(C(=O)CCOCCOCCOCCOCCC(=O)N[C@H](C(=O)N4C[C@H](O)C[C@H]4C(=O)NCc4ccc(-c5scnc5C)cc4)C(C)(C)C)CC3)cc2)cc1Nc1nccc(-c2cccnc2)n1
2. COc1cc(Nc2c(C#N)cnc3cc(OCCCN4CCN(C(=O)CCC(=O)Nc5cccc6c5CN(C5CCC(=O)NC5=O)C6=O)CC4)c(OC)cc23)c(Cl)cc1Cl (stereo not shown)
3. Cc1ccc(NC(=O)c2ccc(CN3CCN(C(=O)CCCCCCC(=O)N[C@H](C(=O)N4C[C@H](O)C[C@H]4C(=O)NCc4ccc(-c5scnc5C)cc4)C(C)(C)C)CC3)cc2)cc1Nc1nccc(-c2cccnc2)n1
4. Cc1nc(Nc2ncc(C(=O)Nc3c(C)cccc3Cl)s2)cc(N2CCN(C(=O)CCCCCOCCOCCOCCCCCC(=O)Nc3cccc4c3C(=O)N(C3CCC(=O)NC3=O)C4=O)CC2)n1 (stereo not shown)

A:
1: 1 µM; 2: 0.01 to 0.1 µM; 3: 0.1 to 1 µM; 4: 0.01 to 0.1 µM

###

Biological target: BCR-ABL protein (Homo sapiens, UniProt P00519)
Sequence (P00519 with tags, fused parts or gaps): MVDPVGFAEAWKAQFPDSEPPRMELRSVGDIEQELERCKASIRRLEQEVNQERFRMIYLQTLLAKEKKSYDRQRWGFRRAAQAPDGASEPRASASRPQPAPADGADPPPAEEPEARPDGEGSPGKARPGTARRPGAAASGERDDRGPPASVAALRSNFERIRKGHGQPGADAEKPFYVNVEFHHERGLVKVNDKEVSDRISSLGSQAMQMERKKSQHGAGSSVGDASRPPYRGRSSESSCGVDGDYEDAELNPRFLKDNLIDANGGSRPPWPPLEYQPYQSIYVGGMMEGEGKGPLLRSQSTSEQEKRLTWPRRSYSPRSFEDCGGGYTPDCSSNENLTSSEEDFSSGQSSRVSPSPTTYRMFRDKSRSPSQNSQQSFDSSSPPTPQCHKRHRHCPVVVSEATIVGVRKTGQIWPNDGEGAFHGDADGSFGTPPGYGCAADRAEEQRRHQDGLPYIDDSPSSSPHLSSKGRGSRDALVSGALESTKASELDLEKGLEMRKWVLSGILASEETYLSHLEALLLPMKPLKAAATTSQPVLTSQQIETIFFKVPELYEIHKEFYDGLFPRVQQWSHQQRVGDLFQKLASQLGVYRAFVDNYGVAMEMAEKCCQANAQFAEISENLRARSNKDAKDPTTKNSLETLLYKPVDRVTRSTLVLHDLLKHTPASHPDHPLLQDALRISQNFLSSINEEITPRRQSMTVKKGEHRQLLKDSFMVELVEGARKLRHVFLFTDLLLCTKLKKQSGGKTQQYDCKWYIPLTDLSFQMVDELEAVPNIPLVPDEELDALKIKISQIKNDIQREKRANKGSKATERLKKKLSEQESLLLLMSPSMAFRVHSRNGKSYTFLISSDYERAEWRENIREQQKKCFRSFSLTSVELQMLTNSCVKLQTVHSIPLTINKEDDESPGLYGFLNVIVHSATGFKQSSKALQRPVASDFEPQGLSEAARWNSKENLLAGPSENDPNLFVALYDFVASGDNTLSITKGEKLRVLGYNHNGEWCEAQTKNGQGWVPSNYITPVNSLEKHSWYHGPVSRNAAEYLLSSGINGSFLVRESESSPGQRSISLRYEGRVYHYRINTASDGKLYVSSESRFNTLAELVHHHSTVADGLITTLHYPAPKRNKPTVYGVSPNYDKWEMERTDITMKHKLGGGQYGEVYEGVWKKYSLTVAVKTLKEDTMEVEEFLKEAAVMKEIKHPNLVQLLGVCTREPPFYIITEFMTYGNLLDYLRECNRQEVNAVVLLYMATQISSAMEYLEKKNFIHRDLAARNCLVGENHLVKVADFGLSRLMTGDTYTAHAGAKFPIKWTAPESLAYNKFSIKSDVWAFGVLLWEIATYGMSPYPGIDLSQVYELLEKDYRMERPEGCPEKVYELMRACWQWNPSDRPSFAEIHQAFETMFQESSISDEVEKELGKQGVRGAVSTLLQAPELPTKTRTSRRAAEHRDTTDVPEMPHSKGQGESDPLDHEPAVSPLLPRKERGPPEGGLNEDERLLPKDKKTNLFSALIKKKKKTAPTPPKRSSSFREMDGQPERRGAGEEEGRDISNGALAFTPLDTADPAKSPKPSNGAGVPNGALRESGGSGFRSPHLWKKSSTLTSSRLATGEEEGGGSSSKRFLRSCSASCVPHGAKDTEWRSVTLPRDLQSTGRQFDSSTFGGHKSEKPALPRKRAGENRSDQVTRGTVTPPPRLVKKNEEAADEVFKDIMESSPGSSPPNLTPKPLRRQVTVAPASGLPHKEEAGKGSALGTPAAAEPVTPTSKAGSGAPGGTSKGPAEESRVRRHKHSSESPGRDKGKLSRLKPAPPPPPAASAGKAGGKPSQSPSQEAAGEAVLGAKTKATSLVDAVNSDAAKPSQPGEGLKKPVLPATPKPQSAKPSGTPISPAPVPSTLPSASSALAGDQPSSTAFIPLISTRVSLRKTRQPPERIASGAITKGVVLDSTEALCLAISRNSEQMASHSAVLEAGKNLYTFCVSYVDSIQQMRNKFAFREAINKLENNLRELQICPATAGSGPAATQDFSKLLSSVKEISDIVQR
Experiment: Western blot degradation of BCR-ABL in K562 cells
Format: cell-based
Set-up: Western blot was used to detect the expression of BCR-ABL and c-ABL protein in K562 cells; BCR (fusion partner, P11274); endogenous in cells; host or cells: K562; the other entry of the earlier key: BCR (P11274, Breakpoint cluster region protein)
Settings: 16 hours, 1 nM-10 μM
assayMetric: DC50

Working through the 8 compounds below one at a time, give DC50 for each.
1. Cc1nc(Nc2ncc(C(=O)Nc3c(C)cccc3Cl)s2)cc(N2CCN(C(=O)CCCCCC(=O)N[C@H](C(=O)N3C[C@H](O)C[C@H]3C(=O)NCc3ccc(-c4scnc4C)cc3)C(C)(C)C)CC2)n1
2. COc1cc(Nc2c(C#N)cnc3cc(OCCCN4CCN(C(=O)CCOCCOCCOCCOCCNc5cccc6c5C(=O)N(C5CCC(=O)NC5=O)C6=O)CC4)c(OC)cc23)c(Cl)cc1Cl (stereo not drawn)
3. COc1cc(Nc2c(C#N)cnc3cc(OCCCN4CCN(C(=O)CCCCCNc5cccc6c5C(=O)N(C5CCC(=O)NC5=O)C6=O)CC4)c(OC)cc23)c(Cl)cc1Cl (stereo not drawn)
4. Cc1nc(Nc2ncc(C(=O)Nc3c(C)cccc3Cl)s2)cc(N2CCN(C(=O)CCOCCOCCOCCOCCOCCNc3cccc4c3C(=O)N(C3CCC(=O)NC3=O)C4=O)CC2)n1 (stereo not drawn)
5. COc1cc(Nc2c(C#N)cnc3cc(OCCCN4CCN(C(=O)CNc5cccc6c5C(=O)N(C5CCC(=O)NC5=O)C6=O)CC4)c(OC)cc23)c(Cl)cc1Cl (stereo not drawn)
6. COc1cc(Nc2c(C#N)cnc3cc(OCCCN4CCN(C(=O)CCOCCOCCNc5cccc6c5C(=O)N(C5CCC(=O)NC5=O)C6=O)CC4)c(OC)cc23)c(Cl)cc1Cl (stereo not drawn)
7. Cc1nc(Nc2ncc(C(=O)Nc3c(C)cccc3Cl)s2)cc(N2CCN(C(=O)CCOCCOCCOCCOCCNc3cccc4c3C(=O)N(C3CCC(=O)NC3=O)C4=O)CC2)n1 (stereo not drawn)
8. COc1cc(Nc2c(C#N)cnc3cc(OCCCN4CCN(C(=O)CCOCCOCCOCCNc5cccc6c5C(=O)N(C5CCC(=O)NC5=O)C6=O)CC4)c(OC)cc23)c(Cl)cc1Cl (stereo not drawn)

A:
["1 to 10 nM", "10 to 100 nM", "10 to 100 nM", "1 to 10 nM", "10 to 100 nM", "10 to 100 nM", "1 to 10 nM", "10 to 100 nM"]

Working through the 7 compounds below one at a time, give DC50 for each.
1. COc1cc(Nc2c(C#N)cnc3cc(OCCCN4CCN(C(=O)CCOCCOCCOCCOCCOCCNc5cccc6c5C(=O)N(C5CCC(=O)NC5=O)C6=O)CC4)c(OC)cc23)c(Cl)cc1Cl (stereo not drawn)
2. Cc1nc(Nc2ncc(C(=O)Nc3c(C)cccc3Cl)s2)cc(N2CCN(C(=O)CCCCC(=O)N[C@H](C(=O)N3C[C@H](O)C[C@H]3C(=O)NCc3ccc(-c4scnc4C)cc3)C(C)(C)C)CC2)n1
3. COc1cc(Nc2c(C#N)cnc3cc(OCCCN4CCN(C(=O)CCC(=O)NCCNc5cccc6c5C(=O)N(C5CCC(=O)NC5=O)C6=O)CC4)c(OC)cc23)c(Cl)cc1Cl (stereo not drawn)
4. Cc1nc(Nc2ncc(C(=O)Nc3c(C)cccc3Cl)s2)cc(N2CCN(C(=O)CCCNc3cccc4c3C(=O)N(C3CCC(=O)NC3=O)C4=O)CC2)n1 (stereo not drawn)
5. Cc1nc(Nc2ncc(C(=O)Nc3c(C)cccc3Cl)s2)cc(N2CCN(C(=O)CCCC(=O)Nc3cccc4c3C(=O)N(C3CCC(=O)NC3=O)C4=O)CC2)n1 (stereo not drawn)
6. Cc1nc(Nc2ncc(C(=O)Nc3c(C)cccc3Cl)s2)cc(N2CCN(C(=O)CCCCNc3cccc4c3C(=O)N(C3CCC(=O)NC3=O)C4=O)CC2)n1 (stereo not drawn)
7. Cc1nc(Nc2ncc(C(=O)Nc3c(C)cccc3Cl)s2)cc(N2CCN(C(=O)CCCCCOCCOCCOCCCCCC(=O)Nc3cccc4c3C(=O)N(C3CCC(=O)NC3=O)C4=O)CC2)n1 (stereo not drawn)

A:
1. 100 to 1000 nM
2. 10 to 100 nM
3. 1 to 10 nM
4. 1 to 10 nM
5. 10 to 100 nM
6. < 1 nM
7. 10 to 100 nM
